Molecular target: cytochrome bc1 complex (Solanum tuberosum (Potato), UniProt P29757)
Assay: Respiratory activity of potato mitochondria lacking AOX (cytochrome bc1 complex), oxygen electrode
Format: biochemical
Conditions: 0.3 mg potato mitochondria respiring on 1 mM NADH; 25° C.; 1 μM CCCP; read-out: IC50 (Potato mitochondria)
measured endpoint: pIC50
Please express pIC50 as -log10 of the molar concentration.

Short answer for CC(C)=CCC/C(C)=C/Cc1c(O)c(Cl)c(C)c(C=O)c1O : pIC50 was 6.12

----------
Molecular target: cytochrome bc1 complex (Solanum tuberosum (Potato))
Experiment: Respiratory activity of potato mitochondria lacking AOX (cytochrome bc1 complex), oxygen electrode
Assay type: biochemical
Settings: IC50 (Potato mitochondria), 0.3 mg potato mitochondria respiring on 1 mM NADH; 25° C.; 1 μM CCCP
measured endpoint: pIC50
Please express pIC50 as -log10 of the molar concentration.

Short answer for CC(/C=C/[C@@]1(C)[C@H](C)CCC(=O)[C@@H]1C)=C\Cc1c(O)c(Cl)c(C)c(C=O)c1O [Ascochlorin, ascochlorin] : pIC50 was 6.30

----------
Biological target: recombinant AOX protein (Trypanosoma brucei brucei, UniProt Q26710)
Experiment: biochemical
Settings: purified recombinant AOX protein; oxygen consumption; 1 mM NADH as substrate
measured endpoint: pIC50
Please express pIC50 as -log10 of the molar concentration.

Short answer for CCCCCCCCOC(=O)c1cc(O)c(O)c(O)c1 [Octyl Gallate] : pIC50 was 6.98
